Tested on: G9a (Homo sapiens, UniProt Q96KQ7)
Sequence (Q96KQ7 1-1210): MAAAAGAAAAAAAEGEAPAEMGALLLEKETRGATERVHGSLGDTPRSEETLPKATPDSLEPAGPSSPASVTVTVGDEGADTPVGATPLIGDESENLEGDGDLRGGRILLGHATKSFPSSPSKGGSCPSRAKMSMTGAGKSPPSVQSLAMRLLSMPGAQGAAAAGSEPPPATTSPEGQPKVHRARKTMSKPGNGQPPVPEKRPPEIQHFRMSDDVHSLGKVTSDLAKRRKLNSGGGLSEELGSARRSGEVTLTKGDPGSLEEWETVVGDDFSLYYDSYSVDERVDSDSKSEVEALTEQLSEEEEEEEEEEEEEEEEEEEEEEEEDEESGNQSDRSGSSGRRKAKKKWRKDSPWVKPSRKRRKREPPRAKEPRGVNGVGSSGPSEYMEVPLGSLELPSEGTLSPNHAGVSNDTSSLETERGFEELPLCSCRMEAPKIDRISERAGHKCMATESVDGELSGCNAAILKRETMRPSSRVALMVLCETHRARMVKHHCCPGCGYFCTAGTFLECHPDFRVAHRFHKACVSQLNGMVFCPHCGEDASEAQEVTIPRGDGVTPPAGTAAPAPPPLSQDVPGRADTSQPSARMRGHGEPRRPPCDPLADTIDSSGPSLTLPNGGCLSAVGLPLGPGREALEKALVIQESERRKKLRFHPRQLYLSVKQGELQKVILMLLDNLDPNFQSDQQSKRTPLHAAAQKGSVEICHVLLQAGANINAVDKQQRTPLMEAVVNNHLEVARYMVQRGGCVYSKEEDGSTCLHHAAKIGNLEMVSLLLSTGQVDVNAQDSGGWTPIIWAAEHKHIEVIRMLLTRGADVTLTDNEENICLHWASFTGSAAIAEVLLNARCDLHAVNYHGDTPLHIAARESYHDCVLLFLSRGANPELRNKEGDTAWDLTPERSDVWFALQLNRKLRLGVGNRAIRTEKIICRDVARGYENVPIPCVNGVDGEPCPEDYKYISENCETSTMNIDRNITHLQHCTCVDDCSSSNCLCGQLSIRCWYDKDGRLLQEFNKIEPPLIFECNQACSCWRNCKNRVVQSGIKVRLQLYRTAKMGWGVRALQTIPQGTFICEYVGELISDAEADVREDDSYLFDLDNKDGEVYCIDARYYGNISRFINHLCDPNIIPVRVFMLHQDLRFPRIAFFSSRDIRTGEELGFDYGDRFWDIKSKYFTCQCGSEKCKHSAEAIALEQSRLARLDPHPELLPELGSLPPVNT
Property name: IC50 (µM)
The figure you give is taken to be in µM; do not add the unit.

Ask: I'd like to know its IC50. The compound in question is COc1cccc2nc(N3CCCN(C)CC3)cc(NC3CCN(C)CC3)c12 [Compound 5k]
Reply: 82.6
